Value source: the RNAGym collection of RNA variant scans (doi:10.1126/science.aae0568)

B1: tRNA (parent)
chain: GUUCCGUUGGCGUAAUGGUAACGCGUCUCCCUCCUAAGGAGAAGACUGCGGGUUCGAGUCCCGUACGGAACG

Variants of: B1
Assay: yeast fitness relative to wild type (ratio to wild type); higher = fitter; tRNA-Arg(CCU), competitive growth, 37 C, YPD
Fewer inactive variants are shown than the library holds.
# binarize yeast fitness: threshold 0.6 inclusive, high side MET, low side NOT MET

| Mutant name | Class |
| --- | --- |
| U26G U53A G56C G63A | NOT MET |
| U32C U54C | MET |
| A21U U47G U59A | NOT MET |
| G6A C27A C30U G41C A43U C49A | NOT MET |
| U16C C46G G56A | MET |
| G9A C22A C55U | MET |
| C4A G6A G25A C29G A57G | NOT MET |
| G12A U35C G48C | NOT MET |
| C4U A45C A69U | MET |
| G9C C30U A45G | NOT MET |
| G12C C62U A69U | MET |
| G9C A57G U59A | NOT MET |
| C11U C31A A57C | NOT MET |
| C22G C24U G50C | NOT MET |
| A21G C27G C29A G50A | NOT MET |
| C24G C29A A43U G68C | NOT MET |
| G12A C29A A65U | NOT MET |
| C11U U59A C60U | NOT MET |
| U13A C62G C66A | NOT MET |
| G17A C24U C29G | NOT MET |
| C5G G23C A36C | NOT MET |
| C34U U59A | MET |
| U3G U8G U19A A69C | NOT MET |
| C31G A40G A45C U47C U53A A70U | NOT MET |
| U2G C4U C29G | NOT MET |
| C5U G9A C49A | NOT MET |
| G17C A70U | MET |
| C4U A36G G44C G63A | NOT MET |
| A14G A15U G50U U64G | NOT MET |
| A20G C31U A36C C61U A65C | NOT MET |
| G9C A14G C29U A36C A45G G67U | NOT MET |
| C5G C29A G52A | MET |
| C11G C24G U54C G67C | NOT MET |
| G9C A21G G44C U47C | NOT MET |
| G10C C31G C33U | MET |
| G6C U35A A43U C62U G68C | NOT MET |
| C31G G48A C55A C62A | NOT MET |
| U19G A20U C27G | NOT MET |
| C11G A15C G50C | NOT MET |
| C4G C22G C24U C29U C30G | NOT MET |
| U3C U32C C33U A42U | NOT MET |
